// reported pIC50 for each item listed
Tested on: 565726-208-R1-J5-PDC complex spheroids, growth inhibition;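 also: spheroids exposed to compounds for seven days before readout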
Experiment: Anticancer human tumor 565726-208-R1-J5-PDC patient-derived pancreatic adenocarcinoma cell line growth inhibition [RAS]
Conditions: curve of first compound; second compound 0.000949 µM
From the text: RAS pathway inhibitors in Combinations in Complex Spheroids A high-throughput screen of multi-cell type tumor spheroids was designed to identify active combinations of RAS pathway inhibitors and targeted small molecules. Complex spheroids include a stromal component modeled by human endothelial cells (HUVEC) and fibroblasts modeled by human mesenchymal stem cells (MSCs). […] Compounds. […] If the clinical Cmax for an agent had not been determined, the highest concentration tested was 10 microM. […]
pIC50: −log10 of the molar value.
endpointLabel: pIC50

1. O=C(c1ccc(F)c(F)c1Nc1ccc(I)cc1F)N1CC(O)([C@@H]2CCCCN2)C1 + CCn1c(-c2cccnc2C(C)OC)c2c3cc(ccc31)N1CCOC(CC(NC(=O)C(C(C)C)N(C)C(=O)C3(F)CCN(C(=O)C#CC(C)(C)N(C)C)CC3)C(=O)N3CCCC(N3)C(=O)OCC(C)(C)C2)C1 = 6.79
2. CC(C)n1nc(-c2ccc3oc(N)nc3c2)c2c(N)ncnc21 + CCn1c(-c2cc(N3CCN(C)CC3)cnc2C(C)OC)c2c3cc(ccc31)-c1csc(n1)CC(NC(=O)C1CC1C)C(=O)N1CCCC(N1)C(=O)OCC(C)(C)C2 = 8.72
3. CCC(CC)c1cc(NC2CCC(N)C2)n2nccc2n1 (configuration not stated) + CCn1c(-c2cccnc2C(C)OC)c2c3cc(ccc31)N1CCOC(CC(NC(=O)C(C(C)C)N(C)C(=O)C3(F)CCN(C(=O)C#CC(C)(C)N(C)C)CC3)C(=O)N3CCCC(N3)C(=O)OCC(C)(C)C2)C1 = 5.84
4. CC(C)n1nc(-c2ccc3oc(N)nc3c2)c2c(N)ncnc21 + CCn1c(-c2cccnc2C(C)OC)c2c3cc(ccc31)N1CCOC(CC(NC(=O)C(C(C)C)N(C)C(=O)C3(F)CCN(C(=O)C#CC(C)(C)N(C)C)CC3)C(=O)N3CCCC(N3)C(=O)OCC(C)(C)C2)C1 = 7.72
5. CCN1CCN(Cc2ccc(Nc3ncc(F)c(-c4cc(F)c5nc(C)n(C(C)C)c5c4)n3)nc2)CC1 + CCn1c(-c2cc(N3CCN(C)CC3)cnc2C(C)OC)c2c3cc(ccc31)-c1csc(n1)CC(NC(=O)C1CC1C)C(=O)N1CCCC(N1)C(=O)OCC(C)(C)C2 = 7.14
6. Nc1ccn(C2OC(CO)C(O)C2(F)F)c(=O)n1 (configuration not stated) + CCn1c(-c2cccnc2C(C)OC)c2c3cc(ccc31)N1CCOC(CC(NC(=O)C(C(C)C)N(C)C(=O)C3(F)CCN(C(=O)C#CC(C)(C)N(C)C)CC3)C(=O)N3CCCC(N3)C(=O)OCC(C)(C)C2)C1 = 7.08
7. CC(Nc1ccc2c(c1)OCCn1cc(N3C(=O)OCC3C(F)F)nc1-2)C(N)=O (configuration not stated) + CCn1c(-c2cc(N3CCN(C)CC3)cnc2C(C)OC)c2c3cc(ccc31)-c1csc(n1)CC(NC(=O)C1CC1C)C(=O)N1CCCC(N1)C(=O)OCC(C)(C)C2 = 6.50
8. CC1(C)CCC(Nc2ncc(C(F)(F)F)c(-c3c[nH]c4c(P(C)(C)=O)c(C#N)ccc34)n2)CN1 (configuration not stated) + CCn1c(-c2cc(N3CCN(C)CC3)cnc2C(C)OC)c2c3cc(ccc31)-c1csc(n1)CC(NC(=O)C1CC1C)C(=O)N1CCCC(N1)C(=O)OCC(C)(C)C2 = 8.87
9. Cc1nc(N2CCC3(CC2)COC(C)C3N)c(CO)nc1Sc1ccnc(N)c1Cl (configuration not stated) + CCn1c(-c2cc(N3CCN(C)CC3)cnc2C(C)OC)c2c3cc(ccc31)-c1csc(n1)CC(NC(=O)C1CC1C)C(=O)N1CCCC(N1)C(=O)OCC(C)(C)C2 = 6.69
10. CC1(O)CCCC1n1c(=O)c(C(F)F)cc2cnc(NC3CCN(S(C)(=O)=O)CC3)nc21 (configuration not stated) + CCn1c(-c2cccnc2C(C)OC)c2c3cc(ccc31)N1CCOC(CC(NC(=O)C(C(C)C)N(C)C(=O)C3(F)CCN(C(=O)C#CC(C)(C)N(C)C)CC3)C(=O)N3CCCC(N3)C(=O)OCC(C)(C)C2)C1 = 5.80
11. CCC(CC)c1cc(NC2CCC(N)C2)n2nccc2n1 (configuration not stated) + CCn1c(-c2cc(N3CCN(C)CC3)cnc2C(C)OC)c2c3cc(ccc31)-c1csc(n1)CC(NC(=O)C1CC1C)C(=O)N1CCCC(N1)C(=O)OCC(C)(C)C2 = 6.29
12. CC(C)NCC(C(=O)N1CCN(c2ncnc3c2C(C)CC3O)CC1)c1ccc(Cl)cc1 (configuration not stated) + CCn1c(-c2cc(N3CCN(C)CC3)cnc2C(C)OC)c2c3cc(ccc31)-c1csc(n1)CC(NC(=O)C1CC1C)C(=O)N1CCCC(N1)C(=O)OCC(C)(C)C2 = 5.82

Origin of values: PubChem BioAssay AID2060899
